system: bovine-milk-derived xanthine oxidase (XOD) (Bos taurus, UniProt P80457)
Sequence (P80457 whole entry): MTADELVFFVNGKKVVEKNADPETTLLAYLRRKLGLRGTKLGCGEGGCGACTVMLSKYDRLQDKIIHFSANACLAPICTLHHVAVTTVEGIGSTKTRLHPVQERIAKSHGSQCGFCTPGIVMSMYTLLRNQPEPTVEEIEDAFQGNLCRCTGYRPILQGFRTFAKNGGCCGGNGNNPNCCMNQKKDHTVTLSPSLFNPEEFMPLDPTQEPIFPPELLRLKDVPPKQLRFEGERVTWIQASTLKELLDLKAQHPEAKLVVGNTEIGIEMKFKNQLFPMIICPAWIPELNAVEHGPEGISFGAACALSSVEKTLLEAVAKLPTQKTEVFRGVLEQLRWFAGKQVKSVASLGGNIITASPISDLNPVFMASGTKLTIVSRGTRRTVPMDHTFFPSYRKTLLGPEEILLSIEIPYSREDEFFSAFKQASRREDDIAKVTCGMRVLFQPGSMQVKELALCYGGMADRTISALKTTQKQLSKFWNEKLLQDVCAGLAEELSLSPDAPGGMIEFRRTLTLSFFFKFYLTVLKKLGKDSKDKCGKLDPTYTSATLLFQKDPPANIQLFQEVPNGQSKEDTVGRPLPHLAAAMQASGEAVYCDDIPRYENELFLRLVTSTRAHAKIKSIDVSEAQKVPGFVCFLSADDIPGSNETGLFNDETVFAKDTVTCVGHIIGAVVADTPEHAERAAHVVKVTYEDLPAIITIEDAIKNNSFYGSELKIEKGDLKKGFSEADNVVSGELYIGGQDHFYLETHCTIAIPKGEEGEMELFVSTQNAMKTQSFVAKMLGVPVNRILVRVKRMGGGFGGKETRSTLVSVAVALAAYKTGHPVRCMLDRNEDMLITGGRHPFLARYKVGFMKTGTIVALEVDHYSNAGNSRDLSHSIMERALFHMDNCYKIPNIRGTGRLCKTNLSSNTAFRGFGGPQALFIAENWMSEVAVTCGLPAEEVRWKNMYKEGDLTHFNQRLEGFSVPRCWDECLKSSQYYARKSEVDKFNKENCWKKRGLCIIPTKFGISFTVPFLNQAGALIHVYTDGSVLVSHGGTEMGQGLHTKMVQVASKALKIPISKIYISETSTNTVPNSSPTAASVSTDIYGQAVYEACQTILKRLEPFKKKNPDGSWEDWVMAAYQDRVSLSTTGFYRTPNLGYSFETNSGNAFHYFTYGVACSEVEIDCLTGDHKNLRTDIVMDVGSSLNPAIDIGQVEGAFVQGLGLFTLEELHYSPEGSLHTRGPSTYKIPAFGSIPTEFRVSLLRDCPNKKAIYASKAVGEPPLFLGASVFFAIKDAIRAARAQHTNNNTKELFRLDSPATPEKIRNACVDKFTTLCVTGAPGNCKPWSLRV
value type: IC50

1) Clc1nc(NN=Cc2ccc3c(c2)OCO3)c2nc[nH]c2n1    1150 nM
2) Clc1nc(NN=Cc2ccccc2)c2nc[nH]c2n1    2710 nM
3) Fc1ccc(C=NNc2nc(Cl)nc3[nH]cnc23)cc1    1960 nM
4) COc1ccc(C=NNc2nc(=S)[nH]c3[nH]cnc23)cc1 [Compound 17d]    969 nM
